tested on: BEN; experiment: relative viability (nuclei count vs DMSO), 5 days (fraction); higher = more cells survive; conditions: first compound 0.005 µM
This section presents compounds with their documented relative viability values.
Simply state the number, no unit and no words.

COMPOUND | relative viability
COc1cc2nccc(Oc3ccc(NC(=O)Nc4cc(C)on4)c(Cl)c3)c2cc1OC [Tivozanib] + C[C@@H](Oc1cc(-c2cnn(C3CCNCC3)c2)cnc1N)c1c(Cl)ccc(F)c1Cl [Crizotinib] (partner 1 µM) | 0.966
Nc1ccn([C@@H]2O[C@H](CO)[C@@H](O)[C@@H]2O)c(=O)n1 [Cytarabine] + CCNC(=O)c1noc(-c2cc(C(C)C)c(O)cc2O)c1-c1ccc(CN2CCOCC2)cc1 [Luminespib] (partner 0.01 µM) | 0.178
COc1cc2nccc(Oc3ccc(NC(=O)Nc4cc(C)on4)c(Cl)c3)c2cc1OC [Tivozanib] + CC(=O)c1c(C)c2cnc(Nc3ccc(N4CCNCC4)cn3)nc2n(C2CCCC2)c1=O [Palbociclib] (partner 0.5 µM) | 0.508

Field relative viability (entry Nc1ccn([C@@H]2O[C@H](CO)[C@@H](O)[C@@H]2O)c(=O)n1 [Cytarabine] + COc1cc2c(Oc3ccc(NC(=O)C4(C(=O)Nc5ccc(F)cc5)CC4)cc3F)ccnc2cc1OCCCN1CCOCC1 [Foretinib] (partner 0.25 µM) ) reads 0.768

Field relative viability (entry COc1cc2nccc(Oc3ccc(NC(=O)Nc4cc(C)on4)c(Cl)c3)c2cc1OC [Tivozanib] + O=C(CCCCCCC(=O)Nc1ccccc1)NO [Vorinostat] (partner 1 µM) ) reads 0.577

* * *

test system: NCI-H441; experiment: relative viability (nuclei count vs DMSO), 5 days (fraction); higher = more cells survive; conditions: first compound 0.8 µM
Rule: relative viability below 0.5 gives 1 (yes). Equal to or above 0.5 gives 0 (no).

These solved cases illustrate the format of a correct answer.
COMPOUND | MEASUREMENT TARGET | ANSWER LABEL
Cc1cnc(-c2cnc(NCCNc3ccc(C#N)cn3)nc2-c2ccc(Cl)cc2Cl)[nH]1 + CCNC(=O)c1noc(-c2cc(C(C)C)c(O)cc2O)c1-c1ccc(CN2CCOCC2)cc1 [Luminespib] (partner 0.01 µM) | NCI-H441 | 1 (yes)
O=c1[nH]c2ccccc2n1C1CCN(CCCC(c2ccc(F)cc2)c2ccc(F)cc2)CC1 [Pimozide] + N=C(N)NC(=N)NCCc1ccccc1 [Phenformin] (partner 250 µM) | NCI-H441 | 0 (no)
O=c1[nH]c2ccccc2n1C1CCN(CCCC(c2ccc(F)cc2)c2ccc(F)cc2)CC1 [Pimozide] + Nc1ncn([C@H]2C[C@H](O)[C@@H](CO)O2)c(=O)n1 [Decitabine] (partner 2 µM) | NCI-H441 | 1 (yes)
Cc1cnc(-c2cnc(NCCNc3ccc(C#N)cn3)nc2-c2ccc(Cl)cc2Cl)[nH]1 + N=C(N)NC(=N)NCCc1ccccc1 [Phenformin] (partner 250 µM) | NCI-H441 | 0 (no)

Please look at the following compound next.
Problem: Does this compound meet the criterion relative viability < 0.5? Cc1cnc(-c2cnc(NCCNc3ccc(C#N)cn3)nc2-c2ccc(Cl)cc2Cl)[nH]1 + COc1cccc2cc(-c3nc([C@H]4CC[C@H](C(=O)O)CC4)n4ncnc(N)c34)[nH]c12 [OSI-027] (partner 0.5 µM)
Solution: 1 (yes)
